# Test system: C3aR S26^1.35A (Homo sapiens, UniProt Q16581, S26A)
# Construct: expressed in transfected cells; host or cells: HEK293T
# Assay procedure: GloSensor-based cAMP assay, C3aR mutant S26A
# Format: cell-based
# Measurement parameters: IC50, S26^1.35A; dose-response plot
pIC50: −log10 of the molar value.

| Molecule | pIC50 |
| --- | --- |
| Cc1cc(C(c2ccc(Cl)cc2)c2ccc(Cl)cc2)sc1C(=O)N[C@@H](CCCNC(=N)N)C(=O)O [JR14a, reference compound] | 8.25 |

====

# Test system: C3aR L30^1.39A (Homo sapiens, UniProt Q16581, L30A)
# Construct: expressed in transfected cells; host or cells: HEK293T
# Sequence (Q16581 1-482 L30A): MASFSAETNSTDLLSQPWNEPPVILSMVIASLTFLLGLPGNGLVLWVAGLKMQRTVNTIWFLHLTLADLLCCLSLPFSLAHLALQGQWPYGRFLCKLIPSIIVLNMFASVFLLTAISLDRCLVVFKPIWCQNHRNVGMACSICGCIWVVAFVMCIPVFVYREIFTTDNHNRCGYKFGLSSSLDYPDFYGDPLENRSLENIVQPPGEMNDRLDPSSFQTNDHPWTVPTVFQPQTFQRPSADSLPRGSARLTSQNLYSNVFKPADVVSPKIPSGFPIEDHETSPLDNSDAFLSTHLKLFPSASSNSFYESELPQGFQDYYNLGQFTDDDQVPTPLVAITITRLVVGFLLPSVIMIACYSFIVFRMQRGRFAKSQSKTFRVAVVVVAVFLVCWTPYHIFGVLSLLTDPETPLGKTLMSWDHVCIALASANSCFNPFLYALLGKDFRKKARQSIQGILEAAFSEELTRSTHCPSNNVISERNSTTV
# Assay procedure: GloSensor-based cAMP assay, C3aR mutant L30A
# Assay type: cell-based
# Measurement parameters: pIC50 ± SEM (Mean), L30^1.39A; mean of independent experiments
Metric: IC50 (nM)

| Compound | Test system | Metric | Measured result |
| --- | --- | --- | --- |
| Cc1cc(C(c2ccc(Cl)cc2)c2ccc(Cl)cc2)sc1C(=O)N[C@@H](CCCNC(=N)N)C(=O)O [JR14a, reference compound] | C3aR L30^1.39A (Homo sapiens, UniProt Q16581, L30A) | IC50 | 5.37 |

====

# Test system: C3aR I102^3.32A/I421^7.39A (Homo sapiens, UniProt Q16581, I102A/I421A)
# Construct: expressed in transfected cells; host or cells: HEK293T
# Assay procedure: GloSensor-based cAMP assay, C3aR double mutant I102A/I421A
# Format: cell-based
# Measurement parameters: pIC50 ± SEM (Mean), I102^3.32A/I421^7.39A; mean of independent experiments

| Compound | Test system | IC50 [µM] |
| --- | --- | --- |
| Cc1cc(C(c2ccc(Cl)cc2)c2ccc(Cl)cc2)sc1C(=O)N[C@@H](CCCNC(=N)N)C(=O)O [JR14a, reference compound] | C3aR I102^3.32A/I421^7.39A (Homo sapiens, UniProt Q16581, I102A/I421A) | 1.7 |

====

# Test system: C3aR R161^ECL2A (Homo sapiens, UniProt Q16581, R161A)
# Construct: expressed in transfected cells; host or cells: HEK293T
# Sequence (Q16581 1-482 R161A): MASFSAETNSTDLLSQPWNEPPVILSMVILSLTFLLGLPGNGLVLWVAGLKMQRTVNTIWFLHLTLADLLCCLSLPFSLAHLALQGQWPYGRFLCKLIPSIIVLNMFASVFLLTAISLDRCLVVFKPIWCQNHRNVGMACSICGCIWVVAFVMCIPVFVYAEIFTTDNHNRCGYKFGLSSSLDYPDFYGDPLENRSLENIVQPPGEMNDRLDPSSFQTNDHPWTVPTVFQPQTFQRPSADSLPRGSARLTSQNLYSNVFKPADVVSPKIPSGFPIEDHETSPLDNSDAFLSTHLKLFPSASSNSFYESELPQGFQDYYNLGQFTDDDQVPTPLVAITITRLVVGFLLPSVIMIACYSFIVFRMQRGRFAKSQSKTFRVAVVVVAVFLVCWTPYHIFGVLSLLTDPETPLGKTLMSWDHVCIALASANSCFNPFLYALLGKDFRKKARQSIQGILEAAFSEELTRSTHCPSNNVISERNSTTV
# Assay procedure: GloSensor-based cAMP assay, C3aR mutant R161A
# Assay type: cell-based
# Measurement parameters: IC50, R161^ECL2A; dose-response plot; Not calculated = entire loss of signaling
pIC50: −log10 of the molar value.

| Molecule | Test system | pIC50 |
| --- | --- | --- |
| Cc1cc(C(c2ccc(Cl)cc2)c2ccc(Cl)cc2)sc1C(=O)N[C@@H](CCCNC(=N)N)C(=O)O [JR14a, reference compound] | C3aR R161^ECL2A (Homo sapiens, UniProt Q16581, R161A) | 8.64 |
